# Tested on: ATP;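 further: ATP exposure 15 min at 22 °C before imaging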
# testSummary: switch fluorescence ratio, 500 uM ATP over buffer (Cy3 cluster intensity, sum of 5 cycles each) (fold (ratio)); higher = stronger signal-on switching upon ATP binding; sequences stand for … in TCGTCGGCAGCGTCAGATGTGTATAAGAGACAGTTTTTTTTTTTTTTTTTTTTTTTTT…TC
# statedConditions: aptamer strand: ATP DNA aptamer (quencher-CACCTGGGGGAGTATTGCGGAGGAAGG + anchor), 100 nM annealed; ATP concentration: 500 uM
metricName: switch fluorescence ratio

// solved cases for switch fluorescence ratio follow
Which switch fluorescence ratio is listed for `AATAAGAGGA` ?
1.02

Which switch fluorescence ratio is listed for `GCAAGTTTCA` ?
0.996

Which switch fluorescence ratio is listed for `GCAGGGCGCC` ?
1.01

Further cases:
Which switch fluorescence ratio is listed for `ATTAGTTAGC` ?
1.01

Which switch fluorescence ratio is listed for `GTGGGACACG` ?
1.01

====

# switch fluorescence ratio per record follows
# Tested on: ATP;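 further: ATP exposure 15 min at 22 °C before imaging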
# testSummary: switch fluorescence ratio, 500 uM ATP over buffer (Cy3 cluster intensity, sum of 5 cycles each) (fold (ratio)); higher = stronger signal-on switching upon ATP binding; sequences stand for … in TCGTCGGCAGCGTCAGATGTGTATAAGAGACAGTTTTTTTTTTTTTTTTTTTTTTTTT…TC
# statedConditions: aptamer strand: ATP DNA aptamer (quencher-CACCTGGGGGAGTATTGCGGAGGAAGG + anchor), 100 nM annealed; ATP concentration: 500 uM
I'd appreciate a reply containing only the number, no unit.

Which switch fluorescence ratio is listed for `AGGGCAATGG` ?
1.29

Which switch fluorescence ratio is listed for `TCATACCCTG` ?
1.02

Which switch fluorescence ratio is listed for `TTTGGCGAGT` ?
1.01

Which switch fluorescence ratio is listed for `TTTTGATCGC` ?
1.36

Which switch fluorescence ratio is listed for `CTATGGGCCG` ?
0.972

Which switch fluorescence ratio is listed for `TTTTGCTGTT` ?
0.987

Which switch fluorescence ratio is listed for `CAATGTGGAG` ?
0.992

Which switch fluorescence ratio is listed for `AGTGGAAATT` ?
1.01

Which switch fluorescence ratio is listed for `CAAAGGGGGT` ?
1

Which switch fluorescence ratio is listed for `ACAGGAGGGG` ?
1.04

Further cases:
Which switch fluorescence ratio is listed for `TATATGGGGC` ?
1.03

Which switch fluorescence ratio is listed for `GCGGGTCGGA` ?
1.02

Which switch fluorescence ratio is listed for `GGCTTAGGCA` ?
1.01

Which switch fluorescence ratio is listed for `AGATCGCTTT` ?
1.02

Which switch fluorescence ratio is listed for `TATTGTGAAT` ?
1

Which switch fluorescence ratio is listed for `AAGGATAAAC` ?
1.01

Which switch fluorescence ratio is listed for `GTAATTAAGG` ?
0.996

Which switch fluorescence ratio is listed for `TAGGTTGGGG` ?
1.01

Which switch fluorescence ratio is listed for `AAAAGTACGA` ?
1.07

Which switch fluorescence ratio is listed for `TTACGCTCAT` ?
2.79

====

# switch fluorescence ratio per record follows
# Test system: ATP;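 further: ATP exposure 15 min at 22 °C before imaging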
# testSummary: switch fluorescence ratio, 500 uM ATP over buffer (Cy3 cluster intensity, sum of 5 cycles each) (fold (ratio)); higher = stronger signal-on switching upon ATP binding; sequences stand for … in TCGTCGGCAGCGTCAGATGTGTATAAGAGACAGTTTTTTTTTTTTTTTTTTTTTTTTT…TC
# statedConditions: aptamer strand: ATP DNA aptamer (quencher-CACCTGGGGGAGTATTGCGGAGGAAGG + anchor), 100 nM annealed; ATP concentration: 500 uM
I'd appreciate a reply containing only the number, no unit.

// solved cases for switch fluorescence ratio follow
Which switch fluorescence ratio is listed for `GCGATATGTT` ?
1.03

Which switch fluorescence ratio is listed for `GGGAAGTGTG` ?
0.979

Which switch fluorescence ratio is listed for `TTGGTATGGG` ?
1.03

Which switch fluorescence ratio is listed for `TGCTTAGGTT` ?
0.988

Which switch fluorescence ratio is listed for `TAGTGGGTTA` ?
0.974

Which switch fluorescence ratio is listed for `CAATGGGACC` ?
1.01

Which switch fluorescence ratio is listed for `GAGATAGTGT` ?
0.991

Which switch fluorescence ratio is listed for `TTATTCAAAT` ?
1.02

Which switch fluorescence ratio is listed for `GGCCCCGGGT` ?
1.18

Which switch fluorescence ratio is listed for `GGGTTTGAGA` ?
1.01

Further cases:
Which switch fluorescence ratio is listed for `TTTTCGAATA` ?
1.01

Which switch fluorescence ratio is listed for `TGGGTTTAAT` ?
1.03

Which switch fluorescence ratio is listed for `ATGGGAAGAC` ?
1.06

Which switch fluorescence ratio is listed for `TTGCCGGGCA` ?
0.987

Which switch fluorescence ratio is listed for `CGGCGTACTA` ?
1.06

Which switch fluorescence ratio is listed for `AGTTGGGGTG` ?
0.989

Which switch fluorescence ratio is listed for `ATACGGGGGG` ?
0.989

Which switch fluorescence ratio is listed for `GGCAGAGGCT` ?
1.03

Which switch fluorescence ratio is listed for `GCTATCGTGC` ?
0.975

Which switch fluorescence ratio is listed for `GGGGGGATGG` ?
1.07

====

# Tested on: ATP;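 further: ATP exposure 15 min at 22 °C before imaging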
# testSummary: switch fluorescence ratio, 500 uM ATP over buffer (Cy3 cluster intensity, sum of 5 cycles each) (fold (ratio)); higher = stronger signal-on switching upon ATP binding; sequences stand for … in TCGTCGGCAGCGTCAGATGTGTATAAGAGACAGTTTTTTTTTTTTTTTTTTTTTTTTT…TC
# statedConditions: aptamer strand: ATP DNA aptamer (quencher-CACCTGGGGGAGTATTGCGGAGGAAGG + anchor), 100 nM annealed; ATP concentration: 500 uM
metricName: switch fluorescence ratio
I'd appreciate a reply containing only the number, no unit.

// solved cases for switch fluorescence ratio follow
Which switch fluorescence ratio is listed for `TCGAGAGGGT` ?
0.996

Which switch fluorescence ratio is listed for `CGGGGGGGCA` ?
1

Which switch fluorescence ratio is listed for `GCAGGAAGTC` ?
0.994

Which switch fluorescence ratio is listed for `CCCCAATTT` ?
0.999

Further cases:
Which switch fluorescence ratio is listed for `TGAACGGGGG` ?
1.02

Which switch fluorescence ratio is listed for `CCGGCCGGGG` ?
1.01

Which switch fluorescence ratio is listed for `TTAATTTGTT` ?
0.988

Which switch fluorescence ratio is listed for `TTACTCGCTG` ?
1.07

Which switch fluorescence ratio is listed for `GAATTTAAAA` ?
0.975

Which switch fluorescence ratio is listed for `AACGGGGGCA` ?
0.925

====

# Tested on: ATP;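 further: ATP exposure 15 min at 22 °C before imaging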
# testSummary: switch fluorescence ratio, 500 uM ATP over buffer (Cy3 cluster intensity, sum of 5 cycles each) (fold (ratio)); higher = stronger signal-on switching upon ATP binding; sequences stand for … in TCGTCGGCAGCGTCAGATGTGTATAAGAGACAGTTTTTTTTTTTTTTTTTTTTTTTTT…TC
# statedConditions: aptamer strand: ATP DNA aptamer (quencher-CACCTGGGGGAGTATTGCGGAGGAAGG + anchor), 100 nM annealed; ATP concentration: 500 uM
metricName: switch fluorescence ratio
I'd appreciate a reply containing only the number, no unit.

Which switch fluorescence ratio is listed for `AGGGATAGCT` ?
0.967

Which switch fluorescence ratio is listed for `CTGCGTCGGA` ?
1.01

Which switch fluorescence ratio is listed for `CTGTAAGGAA` ?
0.989

Which switch fluorescence ratio is listed for `AGTCTAGATA` ?
1.03

Which switch fluorescence ratio is listed for `AGTTTTGTTG` ?
0.989

Further cases:
Which switch fluorescence ratio is listed for `AGTTTAAAAC` ?
1.02

Which switch fluorescence ratio is listed for `AGGCGGAACT` ?
1.02

Which switch fluorescence ratio is listed for `GGGTTTGTGT` ?
1.01

Which switch fluorescence ratio is listed for `CGCTAATCAG` ?
1.05

====

# Test system: ATP;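 further: ATP exposure 15 min at 22 °C before imaging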
# testSummary: switch fluorescence ratio, 500 uM ATP over buffer (Cy3 cluster intensity, sum of 5 cycles each) (fold (ratio)); higher = stronger signal-on switching upon ATP binding; sequences stand for … in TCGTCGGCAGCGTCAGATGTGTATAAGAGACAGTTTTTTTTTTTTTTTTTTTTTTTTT…TC
# statedConditions: aptamer strand: ATP DNA aptamer (quencher-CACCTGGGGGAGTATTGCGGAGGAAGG + anchor), 100 nM annealed; ATP concentration: 500 uM
# switch fluorescence ratio per record follows

Which switch fluorescence ratio is listed for `GTGACTTTCT` ?
0.99

Which switch fluorescence ratio is listed for `TGGTGCTGTT` ?
0.985

Which switch fluorescence ratio is listed for `CTCGTTTGAT` ?
1

Further cases:
Which switch fluorescence ratio is listed for `CTGAATTTCA` ?
0.983

Which switch fluorescence ratio is listed for `AAAGATAGAT` ?
1

Which switch fluorescence ratio is listed for `GCGGGTGGAT` ?
1.01

Which switch fluorescence ratio is listed for `AGGTTGGGTA` ?
0.979
